All values here come from ChEMBL document CHEMBL2396625.

target: Protein tyrosine phosphatase type IVA 3 (Homo sapiens)
endpoint: pIC50
// field semantics: pIC50 = negative decimal log of concentration (mol/L)

pIC50 for `COc1ccccc1COc1ccccc1/C=C/C=C1\SC(=S)NC1=O` ? 6.10

###

biological target: Protein tyrosine phosphatase type IVA 3 (Homo sapiens, UniProt O75365); experiment: Inhibition of human His6-tagged full length PRL3 assessed as inhibition of DiFMUP dephosphorylation at 5 ug/ml relative to control
Sequence (O75365 whole entry): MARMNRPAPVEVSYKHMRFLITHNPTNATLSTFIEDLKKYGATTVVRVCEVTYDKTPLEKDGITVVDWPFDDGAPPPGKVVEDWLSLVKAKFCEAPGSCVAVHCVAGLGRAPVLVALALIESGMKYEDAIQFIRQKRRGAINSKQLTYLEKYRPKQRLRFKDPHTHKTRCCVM
endpoint: inhibition (%)
Answer with a number only, understood to be in %.

>>> experimental_value("O=C1NC(=S)S/C1=C\\C=C\\c1cc(Br)ccc1OCc1ccccc1Br")
40.3
>>> experimental_value("Cc1ccccc1COc1ccccc1/C=C/C=C1\\SC(=S)NC1=O")
52.8
>>> experimental_value("O=C1NC(=S)S/C1=C\\C=C\\c1ccccc1OS(=O)(=O)c1ccccc1")
64.2
>>> experimental_value("COc1ccccc1/C=C/C=C1\\SC(=S)NC1=O")
41.7
>>> experimental_value("O=C1NC(=S)S/C1=C\\C=C\\c1ccccc1OCc1ccccc1C(F)(F)F")
40.8
>>> experimental_value("O=C1NC(=S)S/C1=C\\C=C\\c1ccccc1OCc1ccccc1Br")
63.1

Find the recorded inhibition belonging to `O=C1NC(=S)S/C1=C\C=C\c1ccccc1OC(=O)c1ccccc1` and report it. 30.6

Entry `O=C1NC(=S)S/C1=C\C=C\c1ccccc1OCc1ccccc1` has what inhibition? 49.5

Field request: inhibition | item: `O=C1NC(=S)S/C1=C\C=C\c1ccccc1NC(=O)c1ccccc1` 35.2

Look at this compound and give its reported inhibition. `O=C1NC(=S)S/C1=C\C=C\c1ccccc1O` 51.9

Quick one: inhibition for `O=C1NC(=S)S/C1=C\C=C\c1ccccc1Cl` ? 53.9

###

assay: Cytotoxicity against human DLD1 cells overexpressing PRL3 assessed as cell viability at 10 ug/ml after 24 hrs by WST-1 assay relative to control; type: cell-based; conditions: DLD-1 cells overexpressing PRL3, read-out: Activity
In plain terms, low viability at 24 h, 10 ug/ml, meaning strictly below 80%, gives Yes, and everything else gives No.

Example cases with answers are listed next.
>>> group_label("O=C1NC(=S)S/C1=C\\c1cc(Br)ccc1OCc1ccccc1Br")
"No"
>>> group_label("O=C1NC(=S)S/C1=C\\C=C\\c1ccccc1O")
"No"
>>> group_label("COc1ccccc1COc1ccccc1/C=C/C=C1\\SC(=S)NC1=O")
"No"
>>> group_label("O=C1NC(=S)S/C1=C\\C=C\\c1ccccc1NC(=O)c1ccccc1")
"No"
>>> group_label("O=C1NC(=S)S/C1=C\\C=C\\c1cc(Br)ccc1OCc1ccccc1Br")
"Yes"
>>> group_label("O=C1NC(=S)S/C1=C\\C=C\\c1ccccc1OCc1ccncc1")
"No"
>>> group_label("COc1ccccc1/C=C/C=C1\\SC(=S)NC1=O")
"No"
>>> group_label("O=C1NC(=S)S/C1=C\\C=C\\c1cccnc1")
"No"
>>> group_label("O=C1NC(=S)S/C1=C\\C=C\\c1ccccc1")
"No"
>>> group_label("O=C1NC(=S)S/C1=C\\C=C\\c1ccccc1OS(=O)(=O)c1ccccc1")
"No"

Quick check: viability at 24 h, 10 ug/ml of `O=C1NC(=S)S/C1=C\C=C\c1ccccc1OCc1ccccc1C(F)(F)F` under 80%? Yes

For this molecule, is viability at 24 h, 10 ug/ml lower than 80%? `COc1cccc(COc2ccccc2/C=C/C=C2\SC(=S)NC2=O)c1` No

# strict comparison: is reported viability at 24 h, 10 ug/ml < 80%? input = `O=C1NC(=O)/C(=C/C=C/c2ccccc2OCc2ccccc2Br)S1` Yes

Problem: For the molecule `O=C1NC(=S)S/C1=C\C=C\c1ccccc1OC(=O)c1ccccc1` , is viability at 24 h, 10 ug/ml under 80%? No

Please let me know if `O=C1NC(=S)S/C1=C\C=C\c1ccccc1OCc1ccccc1` shows viability at 24 h, 10 ug/ml below 80%. No

Decide: viability at 24 h, 10 ug/ml of `Cc1ccccc1COc1ccccc1/C=C/C=C1\SC(=S)NC1=O` strictly below 80%? Yes
